- Tested on: PC-3
- Test details: NCI tumour cell line growth inhibition, 48 h
The source made the active and inactive calls. No stated cut-off is given here; in the data, active = GI50 up to about 1.1 µM and inactive = higher.
Response enum: active, inactive

Solved entries:
- Compound: "CN1CCc2cc(N)cc3c2C1Cc1ccc2c(c1-3)OCO2 (stereo unspecified)"
  Classification: "inactive"
- Compound: "O=C(NCCN1CCOCC1)c1ccc2cc(C(=O)N3CC(CCl)c4ccc([N+](=O)[O-])cc43)[nH]c2c1 (stereo unspecified)"
  Classification: "inactive"
- Compound: "S=P(N1CC1)(N1CC1)N1CC1"
  Classification: "inactive"
- Compound: "CC[C@@H]1/C=C/C=C/C[C@H](C)[C@@H](O)[C@@H](C)C(=O)[C@H](C)[C@@H](O)[C@H](C)C(=O)[C@H](C)[C@@H](O)[C@H](C)/C=C/C(=O)O[C@H]2[C@@H](C)[C@@H](CC1)O[C@@]1(CC[C@@H](C)[C@@H](CC(C)O)O1)[C@@H]2C (stereo partly specified)"
  Classification: "active"
- Compound: "O=C1C(NCCN2CCOCC2)=C(Cl)C(=O)c2ncccc21"
  Classification: "active"
- Compound: "CCOC(=O)C(C(=O)OCC)=C1NC2(c3ccccc3Nc3ccc(C)cc32)C(C#N)S1 (stereo unspecified)"
  Classification: "inactive"

Give the logged outcome of this assay for the following compound: CCCCCC(/C=C/[C@@H]1[C@@H](C(O)CCCCCC(=O)OC)C(=O)C[C@H]1O[Si](C)(C)C(C)(C)C)OCOCCOC (stereo partly specified)
inactive

Record lookup: outcome of this test for CO[C@@]12C[C@@H](C)[C@]34O[C@H]3C[C@]3(C)O[C@]43CC1=C(C)C(=O)O2 ?
inactive

Field: outcome | Entry: COc1cccc(C2c3cc4c(cc3OC(Nc3ccccc3)C2C)OCO4)c1O (stereo unspecified)
inactive

Answer briefly: the call reported for Cc1nc2ccc(Cl)cc2c2c1CCN2c1ccccc1 in this assay.
inactive

Entry Oc1c(Cl)c(Cl)c(O)c(CCNc2nccs2)c1Cl : call = ?
inactive

---

- Test system: SN12C
- Test details: NCI tumour cell line growth inhibition, 48 h
Activity calls are given as the source filed them. Cut-off read from the data, not from the text of the source: active = GI50 up to about 1.1 µM and inactive = higher.
# valid calls are active, inactive; nothing else

These solved cases illustrate the format of a correct answer.
- Molecule: "N#Cc1nc(C2SCCCS2)oc1N"
  Target or system: "SN12C"
  Classification: "inactive"
- Molecule: "CC1(O)CCn2c(=O)c3cc4ccccc4cc3c(=O)n2C1O (stereo unspecified)"
  Target or system: "SN12C"
  Classification: "inactive"
- Molecule: "COC(=O)C1SC(SC)=NC12c1ccccc1Nc1ccccc12 (stereo unspecified)"
  Target or system: "SN12C"
  Classification: "inactive"

Answer briefly: the call reported for CCOC(=O)C(C(=O)OCC)=C1NC2(c3ccccc3Nc3ccc(C)cc32)C(C#N)S1 (stereo unspecified) in this assay.
inactive

Could you please tell me the result logged for CC(=O)Oc1ccc(C2SCc3nc4ccccc4n32)cc1 (stereo unspecified) in this assay?
inactive

Could you please tell me the result logged for O=c1[nH]c2ccccc2n1CCCN1CCC(n2c(=O)[nH]c3cc(Cl)ccc32)CC1 in this assay?
inactive

Kindly provide the recorded test outcome for the following molecule: CSc1nc(NC2OCC(OC(C)=O)C(OC(C)=O)C2OC(C)=O)c(/N=C(\C)C(C)=O)c(=O)n1C (stereo unspecified)
inactive

Which result was noted for this molecule in the test: O=S(=O)(/N=S(/Nc1ccccc1)C(F)(F)Cl)c1ccccc1 (stereo unspecified)
inactive

Cited source for all entries: ChEMBL document CHEMBL1201862
